Would you mind telling me the reported TNF-α (relative gene expression) of each entry?
- Tested on: TNF-α
- ASSAY INFO: Anti-inflammatory activity: TNF-α gene expression by qRT-PCR in LPS-treated keratinocytes
- Format: cell-based, human
- EXPERIMENTAL SETUP: 27 μM, 24 h, 10 μg/ml LPS, NCTC 2544

GET /value?item= O=C(OCC1OC(c2ccco2)OC(C(COC(=O)c2ccccc2)OC(=O)c2ccccc2)C1OC(=O)c1ccccc1)c1ccccc1 (centres unmarked) [Tetrabenzoyl sorbityl furfural, tetrabenzoyl sorbityl furfural] &field=TNF-α (relative gene expression) returns 0.28

GET /value?item= OCC(O)C1OC(c2ccccc2)OC(CO)C1O (centres unmarked) [Sorbityl benzal, sorbityl benzal] &field=TNF-α (relative gene expression) returns 0.01

GET /value?item= OCC1OC(c2ccco2)OC(CO)C1O (centres unmarked) [Xylitil furfural, xylitil furfural] &field=TNF-α (relative gene expression) returns 0.18

GET /value?item= COc1cc(C2OC(CO)C(O)C(C(O)CO)O2)ccc1O (centres unmarked) [Sorbityl vanillinal, sorbityl vanillinal] &field=TNF-α (relative gene expression) returns 0.21

# context switch: different compound, same TNF-α (relative gene expression)
GET /value?item= CC(=O)OCC1OC(c2ccco2)OC(C(COC(C)=O)OC(C)=O)C1OC(C)=O (centres unmarked) [Tetracetyl sorbityl furfural, tetracetyl sorbityl furfural] &field=TNF-α (relative gene expression) returns 0.12

---

- Test system: TNF-α
- ASSAY INFO: Anti-inflammatory activity: TNF-α gene expression by qRT-PCR in LPS-treated keratinocytes
- Type: cell-based, human
- EXPERIMENTAL SETUP: 27 μM, 24 h, TNF-α vs Control + LPS
MEASUREMENT TYPE: Comparison vs LFS (%)
One number for each entry, in %.

Here's what some known entries look like.
GET /value?item= COc1cc(C2OC(CO)C(O)C(C(O)CO)O2)ccc1O (centres unmarked) &field=Comparison vs LFS (%) returns 98.95

GET /value?item= OCC(O)C1OC(c2ccccc2)OC(CO)C1O (centres unmarked) &field=Comparison vs LFS (%) returns 99.97

GET /value?item= O=C(OCC1OC(c2ccco2)OC(C(COC(=O)c2ccccc2)OC(=O)c2ccccc2)C1OC(=O)c1ccccc1)c1ccccc1 (centres unmarked) &field=Comparison vs LFS (%) returns 98.63

GET /value?item= OCC1OC(c2ccco2)OC(CO)C1O (centres unmarked) &field=Comparison vs LFS (%) returns 99.10

# context switch: different compound, same Comparison vs LFS (%)
GET /value?item= CC(=O)OCC1OC(c2ccco2)OC(C(COC(C)=O)OC(C)=O)C1OC(C)=O (centres unmarked) &field=Comparison vs LFS (%) returns 99.39

---

- Test system: TNF-α
- ASSAY INFO: Anti-inflammatory activity: TNF-α gene expression by qRT-PCR in LPS-treated keratinocytes
- Format: cell-based, human
- EXPERIMENTAL SETUP: 13.5 μM, 16 h, 10 μg/ml LPS, NCTC 2544
// label = label 1 if TNF-α (relative gene expression) is not less than 0.3, otherwise label 0

Examples with answers:
Identify whether the reported TNF-α (relative gene expression) of the following compound is 0.3 or greater: OCC(O)C1OC(c2ccccc2)OC(CO)C1O (centres unmarked) label 1

Identify whether the reported TNF-α (relative gene expression) of the following compound is 0.3 or greater: OCC1OC(c2ccco2)OC(CO)C1O (centres unmarked) label 0

Identify whether the reported TNF-α (relative gene expression) of the following compound is 0.3 or greater: O=C(OCC1OC(c2ccco2)OC(C(COC(=O)c2ccccc2)OC(=O)c2ccccc2)C1OC(=O)c1ccccc1)c1ccccc1 (centres unmarked) label 1

Identify whether the reported TNF-α (relative gene expression) of the following compound is 0.3 or greater: CC(=O)OCC1OC(c2ccco2)OC(C(COC(C)=O)OC(C)=O)C1OC(C)=O (centres unmarked) label 1

Next up:
Identify whether the reported TNF-α (relative gene expression) of the following compound is 0.3 or greater: COc1cc(C2OC(CO)C(O)C(C(O)CO)O2)ccc1O (centres unmarked) label 0

---

Would you mind telling me the reported Comparison vs LFS (%) of each entry?
- Test system: TNF-α
- ASSAY INFO: Anti-inflammatory activity: TNF-α gene expression by qRT-PCR in LPS-treated keratinocytes
- Assay type: cell-based, human
- EXPERIMENTAL SETUP: 27 μM, 16 h, TNF-α vs Control + LPS
Give bare numbers, in %.

GET /value?item= CC(=O)OCC1OC(c2ccco2)OC(C(COC(C)=O)OC(C)=O)C1OC(C)=O (centres unmarked) [Tetracetyl sorbityl furfural, tetracetyl sorbityl furfural] &field=Comparison vs LFS (%) returns 91.18

GET /value?item= OCC(O)C1OC(c2ccccc2)OC(CO)C1O (centres unmarked) [Sorbityl benzal, sorbityl benzal] &field=Comparison vs LFS (%) returns 97.62

GET /value?item= COc1cc(C2OC(CO)C(O)C(C(O)CO)O2)ccc1O (centres unmarked) [Sorbityl vanillinal, sorbityl vanillinal] &field=Comparison vs LFS (%) returns 95.44

GET /value?item= OCC1OC(c2ccco2)OC(CO)C1O (centres unmarked) [Xylitil furfural, xylitil furfural] &field=Comparison vs LFS (%) returns 94.37

# context switch: different molecule, same Comparison vs LFS (%)
GET /value?item= O=C(OCC1OC(c2ccco2)OC(C(COC(=O)c2ccccc2)OC(=O)c2ccccc2)C1OC(=O)c1ccccc1)c1ccccc1 (centres unmarked) [Tetrabenzoyl sorbityl furfural, tetrabenzoyl sorbityl furfural] &field=Comparison vs LFS (%) returns 85.81

---

- System: TNF-α
- ASSAY INFO: Anti-inflammatory activity: TNF-α gene expression by qRT-PCR in LPS-treated keratinocytes
- Assay type: cell-based, human
- EXPERIMENTAL SETUP: 27 μM, 16 h, 10 μg/ml LPS, NCTC 2544
MEASUREMENT TYPE: TNF-α (relative gene expression)
Numbers only.

Here's what some known entries look like.
Item OCC1OC(c2ccco2)OC(CO)C1O (centres unmarked) was tested on TNF-α; the reported TNF-α (relative gene expression) is 0.18

Item O=C(OCC1OC(c2ccco2)OC(C(COC(=O)c2ccccc2)OC(=O)c2ccccc2)C1OC(=O)c1ccccc1)c1ccccc1 (centres unmarked) was tested on TNF-α; the reported TNF-α (relative gene expression) is 0.45

Item CC(=O)OCC1OC(c2ccco2)OC(C(COC(C)=O)OC(C)=O)C1OC(C)=O (centres unmarked) was tested on TNF-α; the reported TNF-α (relative gene expression) is 0.28

Item OCC(O)C1OC(c2ccccc2)OC(CO)C1O (centres unmarked) was tested on TNF-α; the reported TNF-α (relative gene expression) is 0.08

More entries:
Item COc1cc(C2OC(CO)C(O)C(C(O)CO)O2)ccc1O (centres unmarked) was tested on TNF-α; the reported TNF-α (relative gene expression) is 0.15

---

- System: fillagrin (FLG)
- ASSAY INFO: Skin barrier function protection: filaggrin (FLG) gene expression by qRT-PCR in LPS-treated keratinocytes
- Format: cell-based, human
- EXPERIMENTAL SETUP: 13.5 μM, with LPS, Control + LPS = 1.000
MEASUREMENT TYPE: (FLG) 16 h RQ ± SEM
Give bare numbers.

GET /value?item= OCC(O)C1OC(c2ccccc2)OC(CO)C1O (centres unmarked) &field=(FLG) 16 h RQ ± SEM returns 16.971

Give (FLG) 16 h RQ ± SEM for each listed item.
1. COc1cc(C2OC(CO)C(O)C(C(O)CO)O2)ccc1O (centres unmarked)
2. CC(=O)OCC1OC(c2ccco2)OC(C(COC(C)=O)OC(C)=O)C1OC(C)=O (centres unmarked)
3. OCC1OC(c2ccco2)OC(CO)C1O (centres unmarked)
4. O=C(OCC1OC(c2ccco2)OC(C(COC(=O)c2ccccc2)OC(=O)c2ccccc2)C1OC(=O)c1ccccc1)c1ccccc1 (centres unmarked)

4.408
11.158
64.669
22.864

---

- Test system: human keratinocytes NCTC2544
- ASSAY INFO: MTT assay with induced oxidative stress (H2O2)
- Type: cell-based
- EXPERIMENTAL SETUP: 27 μM, 16 h pretreatment, then 1 mM H2O2, NCTC2544
Would you mind telling me the reported % protection of each entry?
Numbers only, in %.

Give % protection for each listed item.
1. COc1cc(C2OC(CO)C(O)C(C(O)CO)O2)ccc1O (centres unmarked) [Sorbityl vanillinal, sorbityl vanillinal]
2. OCC(O)C1OC(c2ccccc2)OC(CO)C1O (centres unmarked) [Sorbityl benzal, sorbityl benzal]

1. 22.766
2. 20.439

Give % protection for each listed item.
1. OCC1OC(c2ccco2)OC(CO)C1O (centres unmarked) [Xylitil furfural, xylitil furfural]
2. CC(=O)OCC1OC(c2ccco2)OC(C(COC(C)=O)OC(C)=O)C1OC(C)=O (centres unmarked) [Tetracetyl sorbityl furfural, tetracetyl sorbityl furfural]
3. O=C(OCC1OC(c2ccco2)OC(C(COC(=O)c2ccccc2)OC(=O)c2ccccc2)C1OC(=O)c1ccccc1)c1ccccc1 (centres unmarked) [Tetrabenzoyl sorbityl furfural, tetrabenzoyl sorbityl furfural]

1. 33.651
2. 49.201
3. 8.725

Data provenance: patent US10550094B2
